Data origin: PubChem BioAssay (NCI)

Listed below: TGI values for each entry.
# Tested on: MOLT-4 leukemia
# run description: NCI tumour cell line growth inhibition, 48 h

Completed entries (count: 3):
CC(=O)OCC1OC(n2c(=S)n(-c3ccccc3)c(=O)c3cc(Br)ccc32)C(OC(C)=O)C(OC(C)=O)C1OC(C)=O (stereo not drawn)	> 100 µM
COc1cc2c(c(OC)c1OC)C(=O)c1c-2n(CCCN=[N+]=[N-])c(=O)c2cc([N+](=O)[O-])ccc12	> 100 µM
O=C(CSc1nc2ccc(I)cc2c(=O)n1Cc1ccccc1)NN1C(=O)CSC1c1ccccc1 (stereo not drawn)	> 100 µM

Shift focus to the following entry.
Measured TGI (MOLT-4 leukemia), entry NCCn1cnc2nc(NC(=O)c3ccccc3)[nH]c(=O)c21 : > 100 µM
